These data points were gathered from the supplement of paper PMC12698765.

- Test system: 409B2 hiPSC (iCRISPR Cas9, FRMD7 editing)
- protocol_notes: cell survival relative to solvent control (fold (ratio to mock)); higher = more surviving cells
- assay_context: 200 nM
Counter-ions that a name gives are not always drawn.
endpoint_name: cell survival
One number for each entry.

• Oc1cccc(O)c1 [Resorcinol] (in DMSO) = 1.15

Quick request: cell survival for each listed item, please.
1. NC(=O)CC[C@@H](N)C(=O)O [D-Glutamine] (in H2O)
2. Cc1nc(=O)c2cc(CN(C)c3ccc(C(=O)N[C@@H](CCC(=O)O)C(=O)O)s3)ccc2[nH]1 [Raltitrexed] (in DMSO)
3. O=C(O[C@H]1CN2CCC1CC2)N1CCc2ccccc2[C@@H]1c1ccccc1 [Solifenacin succinate] (in DMSO)
4. CCCCc1oc2ccc(NS(C)(=O)=O)cc2c1C(=O)c1ccc(OCCCN(CCCC)CCCC)cc1 [Dronedarone HCl] (in DMSO)
5. CO[C@H]1O[C@@H]2O[C@@]3(C)CC[C@H]4[C@H](C)CC[C@@H]([C@H]1C)[C@@]24OO3 [Artemether (SM-224)] (in DMSO)
6. CC[C@H](CO)Nc1nc(NCc2ccccc2)c2ncn(C(C)C)c2n1 [Roscovitine (Seliciclib,CYC202)] (in DMSO)
7. Nc1ncnc2c1ncn2C1CC(O)C(CO)O1 (stereo not drawn) [2'-Deoxyadenosine monohydrate] (in DMSO)

Completion:
1.16
1.09
1.04
1.15
0.947
0.955
1.1
